Target: mTOR kinase (Homo sapiens)
attributeMeasured: IC50

structureSmilesString	testedTarget	IC50
CN(C)C(=O)c1ccc(NC(=O)Nc2ccc(-c3nc(N4CCOCC4)c4cc(F)c(-c5cccnc5)cc4n3)cc2F)cc1	mTOR kinase (Homo sapiens)	50 to 200 nM
COc1ccc(-c2ccc3c(N4CCOCC4)nc(-c4ccc(NC(=O)Nc5ccc(C(=O)N(C)C)cc5F)cc4)nc3c2)cn1	mTOR kinase (Homo sapiens)	50 to 200 nM

Please examine the following record next.
Lab request: please report IC50 under test system mTOR kinase (Homo sapiens) for CN(C)C1CCN(C(=O)c2ccc(NC(=O)Nc3ccc(-c4nc(N5CCOCC5)c5ccc(-c6cccnc6F)cc5n4)cn3)cc2)CC1
< 50 nM

---

pIC50: −log10 of the molar value.
Below are pIC50 values recorded for mTOR kinase (Homo sapiens, UniProt P42345).

structureSmilesString	pIC50
CN(C)C(=O)c1ccc(NC(=O)Nc2ccc(-c3nc(N4CCOCC4)c4ccc(-c5ccc(C(=O)O)o5)cc4n3)cc2)cc1	> 7.30

Recorded pIC50 for CN(C)C(=O)c1ccc(NC(=O)Nc2ccc(-c3nc(N4CCOCC4)c4ccc(-c5cncnc5)cc4n3)cn2)c(F)c1 , please?
5.00 to 6.70

Same again, this time with CN(C)C(=O)c1ccc(NC(=O)Nc2ccc(-c3nc(N4CCOCC4)c4cc(F)c(-c5cncnc5)cc4n3)cc2)c(F)c1
> 7.30

Same again, this time with CN(C)C(=O)c1ccc(NC(=O)Nc2ccc(-c3nc(N4CCOCC4)c4ccc(-c5cccc(S(C)(=O)=O)c5)cc4n3)cn2)cc1F
5.00 to 6.70

Same again, this time with CN1CCN(C(=O)c2ccc(NC(=O)Nc3ccc(-c4nc(N5CCOCC5)c5ncc(-c6cnn(C)c6)cc5n4)cc3)cc2)CC1
> 7.30

Same again, this time with COc1cc2nc(-c3ccc(NC(=O)Nc4ccc(C(=O)N(C)C)cc4)cc3)nc(N3CCOCC3)c2cc1OC
> 7.30

---

Below are IC50 values recorded for mTOR kinase (Homo sapiens, UniProt P42345).

As a guide, the following entries are already answered.
structureSmilesString	testedTarget	IC50
CN(C)C(=O)c1ccc(NC(=O)Nc2ccc(-c3nc(N4CCOCC4)c4ccc(-c5cnc(N(C)C)nc5)cc4n3)cc2F)cc1	mTOR kinase (Homo sapiens, UniProt P42345)	< 50 nM
Cc1ccncc1-c1ccc2c(N3CCOCC3)nc(-c3ccc(NC(=O)Nc4ccc(C(=O)N5CCC(N(C)C)CC5)cc4)cc3)nc2c1	mTOR kinase (Homo sapiens, UniProt P42345)	< 50 nM
CN(C)C(=O)c1ccc(NC(=O)Nc2ccc(-c3nc(N4CCOCC4)c4ccc(-c5ccco5)cc4n3)cc2F)cc1	mTOR kinase (Homo sapiens, UniProt P42345)	50 to 200 nM

Recorded IC50 for CN(C)C(=O)c1ccc(NC(=O)Nc2ccc(-c3nc(N4CCOCC4)c4ccc(-c5cccnc5F)cc4n3)c(F)c2)cc1 , please?
50 to 200 nM

Same again, this time with CN(C)C(=O)c1ccc(NC(=O)Nc2ccc(-c3nc(N4CCOCC4)c4ccc(C(C)(C)O)cc4n3)cc2F)cc1
< 50 nM

Same again, this time with COc1ncc(-c2ccc3c(N4CCOCC4)nc(-c4ccc(NC(=O)Nc5ccc(C(=O)N(C)C)c(F)c5)cc4)nc3c2)cn1
< 50 nM

---

Tested on: T47D cells
Test: XTT assay for cell viability, T47D cells
Format: cell-based
Conditions: Homo sapiens, read-out: inhibition of cell proliferation, IC50
attributeMeasured: IC50

Recorded IC50 for CN(C)C(=O)c1ccc(NC(=O)Nc2ccc(-c3nc(N4CCOCC4)c4ccc(-c5cncnc5)cc4n3)cc2)cc1 , please?
< 100 nM

---

Documented IC50 across a set of compounds
Target: PI3Kα (wild-type), P110/P85α (Homo sapiens, UniProt P42336)
Sequence (P42336 whole entry): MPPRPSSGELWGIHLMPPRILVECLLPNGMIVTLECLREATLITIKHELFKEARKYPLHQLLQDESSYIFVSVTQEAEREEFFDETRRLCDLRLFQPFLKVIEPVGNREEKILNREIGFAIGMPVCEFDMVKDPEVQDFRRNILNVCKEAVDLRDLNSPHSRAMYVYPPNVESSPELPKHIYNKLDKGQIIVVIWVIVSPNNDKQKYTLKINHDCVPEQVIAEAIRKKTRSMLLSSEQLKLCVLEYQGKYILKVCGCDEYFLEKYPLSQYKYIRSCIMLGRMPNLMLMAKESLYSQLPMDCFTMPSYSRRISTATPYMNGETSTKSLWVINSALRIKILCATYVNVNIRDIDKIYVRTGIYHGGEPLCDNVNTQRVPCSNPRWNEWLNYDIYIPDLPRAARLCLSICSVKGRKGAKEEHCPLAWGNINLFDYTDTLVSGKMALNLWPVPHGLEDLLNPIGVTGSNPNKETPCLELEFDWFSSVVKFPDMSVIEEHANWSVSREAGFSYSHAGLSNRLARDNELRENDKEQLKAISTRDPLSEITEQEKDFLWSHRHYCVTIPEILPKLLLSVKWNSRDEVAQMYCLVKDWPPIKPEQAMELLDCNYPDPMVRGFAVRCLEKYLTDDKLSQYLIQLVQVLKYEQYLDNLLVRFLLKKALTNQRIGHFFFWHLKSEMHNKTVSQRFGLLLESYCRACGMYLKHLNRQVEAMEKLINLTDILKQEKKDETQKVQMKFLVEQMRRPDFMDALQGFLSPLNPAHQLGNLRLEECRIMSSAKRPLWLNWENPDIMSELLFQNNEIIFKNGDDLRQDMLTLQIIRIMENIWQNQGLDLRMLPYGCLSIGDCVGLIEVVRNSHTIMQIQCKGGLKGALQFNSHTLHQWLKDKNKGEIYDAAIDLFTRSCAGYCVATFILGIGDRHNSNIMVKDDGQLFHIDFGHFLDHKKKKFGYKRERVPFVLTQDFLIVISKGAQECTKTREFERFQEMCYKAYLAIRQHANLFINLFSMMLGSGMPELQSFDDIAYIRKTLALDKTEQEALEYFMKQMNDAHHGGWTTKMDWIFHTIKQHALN
Sequence (P27986 whole entry partner): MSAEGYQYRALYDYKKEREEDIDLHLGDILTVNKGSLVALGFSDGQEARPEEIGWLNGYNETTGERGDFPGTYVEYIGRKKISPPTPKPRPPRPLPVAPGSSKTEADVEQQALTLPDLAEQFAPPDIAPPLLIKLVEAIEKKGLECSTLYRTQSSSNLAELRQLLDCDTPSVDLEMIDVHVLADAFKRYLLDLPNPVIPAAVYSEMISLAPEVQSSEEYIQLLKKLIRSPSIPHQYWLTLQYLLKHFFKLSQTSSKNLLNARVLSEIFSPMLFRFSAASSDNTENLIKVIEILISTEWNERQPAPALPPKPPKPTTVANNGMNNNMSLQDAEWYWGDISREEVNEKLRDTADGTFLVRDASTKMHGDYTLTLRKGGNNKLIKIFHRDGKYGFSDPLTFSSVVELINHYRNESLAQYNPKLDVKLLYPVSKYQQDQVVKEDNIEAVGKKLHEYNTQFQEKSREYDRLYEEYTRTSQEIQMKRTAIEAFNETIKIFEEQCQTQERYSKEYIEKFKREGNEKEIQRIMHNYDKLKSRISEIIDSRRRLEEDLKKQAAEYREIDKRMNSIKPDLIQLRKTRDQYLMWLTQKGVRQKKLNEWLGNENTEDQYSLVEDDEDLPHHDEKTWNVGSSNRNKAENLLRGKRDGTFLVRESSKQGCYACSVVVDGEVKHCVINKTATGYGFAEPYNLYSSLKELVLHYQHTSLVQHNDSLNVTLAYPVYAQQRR
Assay: PI3 Kinase TR-FRET assay, PI3Kα (wild-type)

As a guide, the following entries are already answered.
compound	IC50
Cc1noc(C)c1-c1ccc2c(N3CCOCC3)nc(-c3ccc(NC(=O)Nc4ccc(C(=O)N5CCC(N(C)C)C5)cc4)cc3)nc2c1 (stereo in doubt) [Example 220]	50 to 200 nM
CNC(=O)c1ccc(NC(=O)Nc2ccc(-c3nc(N4CCOCC4)c4ccc(-c5cncnc5)cc4n3)cc2F)cc1 [Example 215]	50 to 200 nM
COc1cc2nc(-c3ccc(NC(=O)Nc4ccc(C(=O)N(C)C)cc4)cc3)nc(N3CCOCC3)c2cc1OC [Example 181]	50 to 200 nM
CN(C)C(=O)c1ccc(NC(=O)Nc2ccc(-c3nc(N4CCOCC4)c4ccc(-c5cccnc5F)cc4n3)cc2)cc1 [Example 21]	50 to 200 nM

Recorded IC50 for CN(C)CCn1cc(-c2ccc3c(N4CCOCC4)nc(-c4ccc(NC(=O)Nc5ccc(C(=O)N(C)C)cc5)cc4)nc3c2)cn1 [Example 83] , please?
50 to 200 nM

Same again, this time with CN(C)C(=O)c1ccc(NC(=O)Nc2ccc(-c3nc(N4CCOCC4)c4ccc(C(C)(C)O)cc4n3)cc2)cc1 [Example 16]
< 50 nM

Same again, this time with CN(C)C(=O)c1ccc(NC(=O)Nc2ccc(-c3nc(N4CCOCC4)c4ccc(-c5ccccn5)cc4n3)cc2)cc1 [Example 155]
< 50 nM

Same again, this time with CN(C)C(=O)c1ccc(NC(=O)Nc2ccc(-c3nc(N4CCOCC4)c4ccc(-c5cccnc5F)cc4n3)cc2)cn1 [Example 28]
50 to 200 nM

Same again, this time with CN(C)C(=O)c1ccc(NC(=O)Nc2ccc(-c3nc(N4CCOCC4)c4ccc(-c5ccccn5)cc4n3)cc2)cc1F [Example 267]
< 50 nM

Same again, this time with CN(C)C(=O)c1ccc(NC(=O)Nc2ccc(-c3nc(N4CCOCC4)c4ncc(-c5cnn(C)c5)cc4n3)c(F)c2F)cc1 [Example 14]
< 50 nM

Same again, this time with CN(C)C(=O)c1ccc(NC(=O)Nc2ccc(-c3nc(N4CCOCC4)c4ncc(-c5cccnc5F)cc4n3)cc2)c(F)c1 [Example 145]
< 50 nM

Same again, this time with CN(C)C1CCN(C(=O)c2ccc(NC(=O)Nc3ccc(-c4nc(N5CCOCC5)c5ccc(-c6cccnc6F)cc5n4)cn3)cc2)CC1 [Example 81]
< 50 nM

Same again, this time with CNC(=O)c1ccc(NC(=O)Nc2ccc(-c3nc(N4CCOCC4)c4ccc(-c5cccc(S(C)(=O)=O)c5)cc4n3)cc2)cc1 [Example 20]
< 50 nM

Same again, this time with CN1CCN(C(=O)c2ccc(NC(=O)Nc3ccc(-c4nc(N5CCOCC5)c5ncc(-c6cnn(C)c6)cc5n4)cc3)cc2)CC1 [Example 73]
< 50 nM

Same again, this time with COc1ncccc1-c1ccc2c(N3CCOCC3)nc(-c3ccc(NC(=O)Nc4ccc(C(=O)N(C)C)cc4)cc3)nc2c1 [Example 163]
< 50 nM

Same again, this time with CN(C)CCN(C)C(=O)c1ccc(NC(=O)Nc2ccc(-c3nc(N4CCOCC4)c4ccc(-c5ccco5)cc4n3)cc2)cc1 [Example 236]
< 50 nM

Same again, this time with Cc1ccc(-c2ccc3c(N4CCOCC4)nc(-c4ccc(NC(=O)Nc5ccc(C(=O)N6CC[C@@H](N(C)C)C6)cc5)cc4)nc3c2)o1 [Example 196]
50 to 200 nM

Same again, this time with CN(C)C(=O)c1ccc(NC(=O)Nc2ccc(-c3nc(N4CCOCC4)c4ncc(-c5cccnc5)cc4n3)cc2)c(F)c1 [Example 153]
< 50 nM

Same again, this time with Cc1ccc(-c2ccc3c(N4CCOCC4)nc(-c4ccc(NC(=O)Nc5ccc(C(=O)N(C)C)cc5)cc4)nc3c2)cn1 [Example 161]
< 50 nM

Same again, this time with CNC(=O)c1ccc(NC(=O)Nc2ccc(-c3nc(N4CCOCC4)c4ccc(-c5ccc(C)o5)cc4n3)cc2)cc1 [Example 56]
50 to 200 nM

Same again, this time with CN(C)C1CCN(C(=O)c2ccc(NC(=O)Nc3ccc(-c4nc(N5CCOCC5)c5ncc(-c6cnn(C)c6)cc5n4)cc3)cc2)C1 (stereo in doubt) [Example 185]
< 50 nM

Same again, this time with CN(C)C(=O)c1ccc(NC(=O)Nc2ccc(-c3nc(N4CCOCC4)c4ncc(-c5cnn(C)c5)cc4n3)c(F)c2)cc1 [Example 238]
< 50 nM

Same again, this time with CN(C)C(=O)c1ccc(NC(=O)Nc2ccc(-c3nc(N4CCOCC4)c4ccc(-c5cncnc5)cc4n3)cn2)c(F)c1 [Example 140]
< 50 nM

Same again, this time with CN(C)C(=O)c1ccc(NC(=O)Nc2ccc(-c3nc(N4CCOCC4)c4ccc(-c5ccco5)cc4n3)c(F)c2F)cc1 [Example 282]
50 to 200 nM

Same again, this time with CN(C)C(=O)c1ccc(NC(=O)Nc2ccc(-c3nc(N4CCOCC4)c4cccc(-c5ccc(F)nc5)c4n3)cc2)cc1 [Example 6]
50 to 200 nM

Same again, this time with CN(C)C(=O)c1ccc(NC(=O)Nc2ccc(-c3nc(N4CCOCC4)c4ncc(-c5cccnc5F)cc4n3)cn2)cc1 [Example 111]
< 50 nM
